molecular target: full-length beta-Catenin (Uniprot ID P35222) (Homo sapiens); construct: 10 nM full-length beta-Catenin (Uniprot ID P35222); experiment: Fluorescence polarization IC50 (beta-catenin / 5FAM-TCF4 10-53 competition); format: binding; conditions: fluorescence polarization; read-out: beta-Catenin FP IC50
observable: IC50 (nM)
The figure you give is taken to be in nM; do not add the unit.

Input line: Query: IC50; subject: CC(=O)N1CCC[C@]12CC=CCCCC1(CCCC=CCCCOC(=O)N3CC[C@@](C(=O)N[C@@H](Cc4ccsc4)C(=O)N[C@@H](Cc4csc5ccccc45)C(=O)N[C@H](CO)[C@@H](C)O)(C3)NC(=O)[C@H](CC(C)C)NC(=O)[C@H](Cc3ccccc3)NC(=O)[C@H](C)NC(=O)[C@H](C)NC(=O)[C@H](Cc3ccccc3C(=O)O)NC(=O)[C@H](CC(=O)O)NC1=O)NC(=O)[C@H](CC(C)(C)C)NC(=O)[C@H](CC(=O)O)NC2=O (single isomer, unassigned) [I-1670]
Output line: 11

###

Target: full-length beta-Catenin (Uniprot ID P35222) (Homo sapiens, UniProt P35222)
Construct: 10 nM full-length beta-Catenin (Uniprot ID P35222)
Sequence (P35222 1-781): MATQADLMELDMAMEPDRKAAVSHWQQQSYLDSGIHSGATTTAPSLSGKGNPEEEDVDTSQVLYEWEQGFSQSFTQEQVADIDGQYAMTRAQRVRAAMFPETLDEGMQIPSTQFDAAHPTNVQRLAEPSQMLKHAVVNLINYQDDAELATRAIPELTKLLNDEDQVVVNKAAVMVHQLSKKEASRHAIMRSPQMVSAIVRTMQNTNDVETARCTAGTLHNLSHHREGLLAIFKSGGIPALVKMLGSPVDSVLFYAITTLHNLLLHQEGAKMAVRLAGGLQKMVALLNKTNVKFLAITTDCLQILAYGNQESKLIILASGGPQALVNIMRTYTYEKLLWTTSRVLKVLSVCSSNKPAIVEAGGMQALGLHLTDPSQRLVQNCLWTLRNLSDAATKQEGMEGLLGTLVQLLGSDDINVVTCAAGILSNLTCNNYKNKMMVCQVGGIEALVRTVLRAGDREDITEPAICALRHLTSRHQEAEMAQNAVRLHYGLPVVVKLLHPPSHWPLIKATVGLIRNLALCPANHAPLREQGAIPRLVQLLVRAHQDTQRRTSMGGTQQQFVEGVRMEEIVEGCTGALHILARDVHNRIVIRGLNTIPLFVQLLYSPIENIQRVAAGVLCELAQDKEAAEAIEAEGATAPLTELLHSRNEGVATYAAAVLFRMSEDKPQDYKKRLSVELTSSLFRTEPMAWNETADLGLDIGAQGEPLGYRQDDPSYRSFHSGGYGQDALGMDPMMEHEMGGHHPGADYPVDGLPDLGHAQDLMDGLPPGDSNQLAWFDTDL
Experiment: Fluorescence polarization IC50 (beta-catenin / 5FAM-TCF4 10-53 competition)
Type: binding
Conditions: fluorescence polarization; read-out: beta-Catenin FP IC50
observable: IC50 (nM)
The figure you give is taken to be in nM; do not add the unit.

Input line: API: value(readout=IC50, system=full-length beta-Catenin (Uniprot ID P35222) (Homo sapiens, UniProt P35222)) for record CC(=O)N1CCC[C@]12CC=CCCCC1(CCCC=CCCCOC(=O)N3CC[C@@](C(=O)N[C@@H](Cc4ccsc4)C(=O)N[C@@H](Cc4cn(C)c5ccccc45)C(=O)N[C@@H](CO)C(N)=O)(C3)NC(=O)[C@H](CC(C)C)NC(=O)[C@H](Cc3ccccc3)NC(=O)[C@H](C)NC(=O)[C@H](C)NC(=O)[C@H](CC(=O)O)NC(=O)[C@H](CC(=O)O)NC1=O)NC(=O)[C@H](CC(C)(C)C)NC(=O)[C@H](CC(=O)O)NC2=O (some centres unmarked) [I-1434]
Output line: 83

Input line: API: value(readout=IC50, system=full-length beta-Catenin (Uniprot ID P35222) (Homo sapiens, UniProt P35222)) for record CC(=O)N1CCC[C@]12CC=CCCCC1(CCCC=CCCOC(=O)N3CC[C@@](C(=O)N[C@@H](Cc4ccccc4Cl)C(=O)N[C@@H](Cc4csc5ccccc45)C(=O)N[C@@H](C(N)=O)[C@H](C)O)(C3)NC(=O)[C@H](CC(N)=O)NC(=O)[C@H](Cc3ccccc3)NC(=O)[C@H](C)NC(=O)[C@H](C)NC(=O)[C@H](CC(=O)O)NC(=O)[C@H](CC(=O)O)NC1=O)NC(=O)[C@H](CC(C)(C)C)NC(=O)[C@H](CC(=O)O)NC2=O (some centres unmarked) [I-1256]
Output line: 1470

Input line: API: value(readout=IC50, system=full-length beta-Catenin (Uniprot ID P35222) (Homo sapiens, UniProt P35222)) for record CC(=O)N1CCC[C@]12CCCCCC1(CCCCCCCCOC(=O)N3CC[C@@](C(=O)N[C@@H](Cc4ccsc4)C(=O)N[C@@H](Cc4csc5ccccc45)C(=O)N[C@@H](CCC(N)=O)C(N)=O)(C3)NC(=O)[C@H](CC(C)C)NC(=O)[C@H](Cc3ccccc3)NC(=O)[C@H](C)NC(=O)[C@H](C)NC(=O)[C@H](CC(=O)O)NC(=O)[C@H](CC(=O)O)NC1=O)NC(=O)[C@H](CC(C)(C)C)NC(=O)[C@H](CC(=O)O)NC2=O (some centres unmarked) [I-1976]
Output line: 150

Input line: API: value(readout=IC50, system=full-length beta-Catenin (Uniprot ID P35222) (Homo sapiens, UniProt P35222)) for record CC(=O)N1CCC[C@]12CC=CCCCC1(CCCC=CCCCCCC[C@@](C)(C(=O)N[C@@H](Cc3ccccc3)C(=O)N[C@@H](Cc3csc4ccccc34)C(=O)N[C@H](Cc3c[nH]cn3)C(N)=O)NC(=O)[C@H](CC(N)=O)NC(=O)[C@H](Cc3ccccc3)NC(=O)[C@H](C)NC(=O)[C@H](C)NC(=O)[C@H](CCC(=O)O)NC(=O)[C@H](CC(=O)O)NC1=O)NC(=O)[C@H](CC(C)C)NC(=O)[C@H](CC(=O)O)NC2=O (some centres unmarked) [I-744]
Output line: 112

Input line: API: value(readout=IC50, system=full-length beta-Catenin (Uniprot ID P35222) (Homo sapiens, UniProt P35222)) for record CC(=O)N1CCC[C@]12CC=CCCCC1(CCCC=CCCCOC(=O)N3CC[C@@](C(=O)N[C@@H](Cc4ccsc4)C(=O)N[C@@H](Cc4csc5ccccc45)C(=O)N[C@@H](CCC(N)=O)C(N)=O)(C3)NC(=O)[C@H](CC(N)=O)NC(=O)[C@H](Cc3ccccc3)NC(=O)[C@H](C)NC(=O)[C@H](C)NC(=O)[C@H](CC(=O)O)NC(=O)[C@H](CC(C)C)NC1=O)NC(=O)[C@H](CC(C)(C)C)NC(=O)[C@H](CC(=O)O)NC2=O (some centres unmarked) [I-1212]
Output line: 8660

###

Please go through the items and note down their Solubility.
assay: Solubility in PBS; assay type: physicochemical
The figure you give is taken to be in µM; do not add the unit.

Input line: Query: Solubility; subject: CC(=O)N1CCC[C@]12CC=CCCCC1(CCCC=CCCCCCC[C@@](C)(C(=O)N[C@@H](Cc3ccccc3)C(=O)N[C@@H](Cc3csc4ccccc34)C(=O)N[C@@H](CCC(N)=O)C(N)=O)NC(=O)[C@H](CC(N)=O)NC(=O)[C@H](Cc3ccccc3)NC(=O)[C@H](C)NC(=O)[C@H](C)NC(=O)[C@H](CC(=O)O)NC(=O)[C@H](CC(=O)O)NC1=O)NC(=O)[C@H](CC(C)C)NC(=O)[C@H](CC(=O)O)NC2=O (stereo partly drawn)
Output line: 50

Input line: Query: Solubility; subject: CC(=O)N1CCC[C@]12CC=CCCCC1(CCCC=CCCCCCC[C@@](C)(C(=O)N[C@@H](Cc3ccccc3)C(=O)N[C@@H](Cc3csc4ccccc34)C(=O)N[C@@H](Cc3c[nH]cn3)C(N)=O)NC(=O)[C@H](CC(N)=O)NC(=O)[C@H](Cc3ccccc3)NC(=O)[C@H](C)NC(=O)[C@H](C)NC(=O)[C@H](CC(=O)O)NC(=O)[C@H](CC(=O)O)NC1=O)NC(=O)[C@H](C)NC(=O)[C@H](CC(=O)O)NC2=O (stereo partly drawn) [I-465]
Output line: 40

Input line: Query: Solubility; subject: CC(=O)N1CCC[C@]12CC=CCCCC1(CCCC=CCCCCCC[C@@](C)(C(=O)N[C@@H](Cc3ccccn3)C(=O)N[C@@H](Cc3csc4ccccc34)C(=O)N[C@@H](CCC(N)=O)C(N)=O)NC(=O)[C@H](C(C)C)NC(=O)[C@H](Cc3ccccc3)NC(=O)[C@H](C)NC(=O)[C@H](C)NC(=O)[C@H](CCC(=O)O)NC(=O)[C@H](CC(=O)O)NC1=O)NC(=O)[C@H](C)NC(=O)[C@H](CC(=O)O)NC2=O (stereo partly drawn) [I-383]
Output line: 36
